Quick reference for viability, T/C among some compounds
# Test system: 349418-098-R-PDC complex spheroid growth;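 further: spheroids also contain HUVEC endothelial cells and human MSC stroma; spheroids exposed to agents for seven days before luminescence viability read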
# experiment summary: Anticancer human tumor 349418-098-R-PDC patient-derived lung adenocarcinoma cell line growth inhibition [AhR]
# assay conditions: second compound 1 µM; first compound 0.0316 µM; stronger effect = lower value

Completed entries (count: 2):
Nc1ncn(C2CC(O)C(CO)O2)c(=O)n1 (stereo not drawn) + Cc1ccccc1N=Nc1ccc(NC(=O)c2ccnn2C)c(C)c1 = 69.9%
CC1COCCN1c1cc(-c2ccnn2C)c2ccnc(-c3ccn[nH]3)c2n1 (stereo not drawn) + Cc1cncc(-c2nc(NCCc3c[nH]c4ccccc34)c3ncn(C(C)C)c3n2)c1 = 81.5%

Exercise: Specify the recorded viability, T/C for COc1cccc2c1C(=O)c1c(O)c3c(c(O)c1C2=O)CC(O)(C(=O)CO)CC3OC1CC(N)C(O)C(C)O1 (stereo not drawn) + Cc1ccccc1N=Nc1ccc(NC(=O)c2ccnn2C)c(C)c1 , system: 349418-098-R-PDC complex spheroid growth.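 Further: spheroids also contain HUVEC endothelial cells and human MSC stroma; spheroids exposed to agents for seven days before luminescence viability read.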
Key: 24.3%
